Recorded mean rank binding to CCL2 for the following compounds
- assayed_target: CCL2 (Homo sapiens, UniProt P13500)
- Sequence (P13500 24-99, species assumed): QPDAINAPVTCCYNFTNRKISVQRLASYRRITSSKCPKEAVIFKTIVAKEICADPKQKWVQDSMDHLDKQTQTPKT
- experiment_summary: Chemokine glycan microarray binding assay
- test_conditions: maximum RFU set as 100% binding, average across 2 glycan concentrations and 3 chemokine dilutions (n=6)

# compound, unit_spec, mean rank binding to CCL2
rows = [
    ("NCCCO[C@@H]1O[C@@H](C(=O)O)[C@@H](O[C@H]2O[C@H](CO)[C@@H](O[C@@H]3O[C@@H](C(=O)O)[C@@H](O[C@H]4O[C@H](CO)[C@@H](O)[C@H](OS(=O)(=O)O)[C@H]4N)[C@H](O)[C@H]3O)[C@H](OS(=O)(=O)O)[C@H]2N)[C@H](O)[C@H]1O", "%", 28),
    ("NCCOCCO[C@@H]1O[C@@H](C(=O)O)[C@@H](OS(=O)(=O)O)[C@H](O)[C@H]1OS(=O)(=O)O", "%", 0),
    ("NCCOCCO[C@@H]1O[C@@H](C(=O)O)[C@@H](O[C@@H]2O[C@@H](C(=O)O)[C@@H](O[C@@H]3O[C@@H](C(=O)O)[C@@H](OS(=O)(=O)O)[C@H](O)[C@H]3O)[C@H](O)[C@H]2O)[C@H](O)[C@H]1O", "%", 0),
    ("NCCCO[C@@H]1OC(C(=O)O)[C@@H](O[C@H]2OC(COS(=O)(=O)O)[C@@H](O[C@@H]3OC(C(=O)O)[C@@H](O[C@H]4OC(COS(=O)(=O)O)[C@@H](O)[C@H](O)C4N)C(O)[C@@H]3O)[C@H](O)C2N)C(O)[C@@H]1O (stereo partly shown)", "%", 1),
    ("NCCOCCO[C@@H]1O[C@@H](C(=O)O)[C@@H](OS(=O)(=O)O)[C@H](O)[C@H]1O", "%", 2),
    ("CC(=O)N[C@H]1[C@@H](O[C@H]2[C@H](O)[C@@H](OP(=O)(O)O)[C@H](OCCCN)O[C@H]2C(=O)O)O[C@H](COP(=O)(O)O)[C@@H](O[C@@H]2O[C@@H](C(=O)O)[C@@H](O[C@H]3O[C@H](COP(=O)(O)O)[C@@H](O)[C@H](O)[C@H]3NC(C)=O)[C@H](O)[C@H]2OP(=O)(O)O)[C@@H]1O", "%", 2),
    ("NCCCO[C@@H]1O[C@@H](C(=O)O)[C@@H](O[C@H]2O[C@H](COS(=O)(=O)O)[C@@H](O[C@@H]3O[C@@H](C(=O)O)[C@@H](O[C@H]4O[C@H](COS(=O)(=O)O)[C@@H](O)[C@H](OS(=O)(=O)O)[C@H]4N)[C@H](O)[C@H]3O)[C@H](OS(=O)(=O)O)[C@H]2N)[C@H](O)[C@H]1O", "%", 95),
    ("NCCCO[C@@H]1OC(C(=O)O)[C@@H](O[C@H]2OC(COS(=O)(=O)O)[C@@H](O[C@@H]3OC(C(=O)O)[C@@H](O[C@H]4OC(COS(=O)(=O)O)[C@@H](O)C(O)C4N)C(O)C3OS(=O)(=O)O)C(O)C2N)C(O)C1OS(=O)(=O)O (stereo partly shown)", "%", 80),
    ("CC(=O)NC1C(O)[C@H](O)C(COS(=O)(=O)O)O[C@@H]1O[C@@H]1C(C(=O)O)O[C@@H](O[C@@H]2C(COS(=O)(=O)O)O[C@H](O[C@@H]3C(C(=O)O)O[C@@H](OCCCN)C(OS(=O)(=O)O)C3O)C(NC(C)=O)C2O)C(OS(=O)(=O)O)C1O (stereo partly shown)", "%", 30),
    ("NCCOCCO[C@@H]1O[C@@H](C(=O)O)[C@@H](O[C@@H]2O[C@@H](C(=O)O)[C@@H](O[C@@H]3O[C@@H](C(=O)O)[C@@H](O[C@@H]4O[C@@H](C(=O)O)[C@@H](OS(=O)(=O)O)[C@H](O)[C@H]4OS(=O)(=O)O)[C@H](O)[C@H]3OS(=O)(=O)O)[C@H](O)[C@H]2OS(=O)(=O)O)[C@H](O)[C@H]1OS(=O)(=O)O", "%", 88),
]

---

- assayed_target: CCL7 (Homo sapiens, UniProt P80098)
- Sequence (P80098 24-99, species assumed): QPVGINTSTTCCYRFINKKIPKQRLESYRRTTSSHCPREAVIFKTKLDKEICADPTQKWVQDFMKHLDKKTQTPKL
- experiment_summary: Chemokine glycan microarray binding assay
- test_conditions: maximum RFU set as 100% binding, average across 2 glycan concentrations and 3 chemokine dilutions (n=6)
Recorded mean rank binding to CCL7 for the following compounds

# compound, mean rank binding to CCL7
measured = [
    ("NCCOCCO[C@@H]1O[C@@H](C(=O)O)[C@@H](O[C@@H]2O[C@@H](C(=O)O)[C@@H](O[C@@H]3O[C@@H](C(=O)O)[C@@H](O[C@@H]4O[C@@H](C(=O)O)[C@@H](OS(=O)(=O)O)[C@H](O)[C@H]4O)[C@H](O)[C@H]3O)[C@H](O)[C@H]2O)[C@H](O)[C@H]1O [Example 11]", "79%"),
    ("CC(=O)NC1C(O)[C@H](O)C(COS(=O)(=O)O)O[C@@H]1O[C@@H]1C(C(=O)O)O[C@@H](O[C@@H]2C(COS(=O)(=O)O)O[C@H](O[C@@H]3C(C(=O)O)O[C@@H](OCCCN)C(O)C3O)C(NC(C)=O)C2O)C(O)C1O (some centres unmarked) [Example 24]", "73%"),
    ("CC(=O)N[C@H]1[C@@H](O[C@H]2[C@H](O)[C@@H](O)[C@H](OCCCN)O[C@H]2C(=O)O)O[C@H](COP(=O)(O)O)[C@@H](O[C@@H]2O[C@@H](C(=O)O)[C@@H](O[C@H]3O[C@H](COP(=O)(O)O)[C@@H](O)[C@H](O)[C@H]3NC(C)=O)[C@H](O)[C@H]2O)[C@@H]1O [Example 26]", "40%"),
    ("NCCOCCO[C@@H]1O[C@@H](C(=O)O)[C@@H](O[C@@H]2O[C@@H](C(=O)O)[C@@H](OS(=O)(=O)O)[C@H](O)[C@H]2OS(=O)(=O)O)[C@H](O)[C@H]1OS(=O)(=O)O [Example 6]", "55%"),
    ("NCCOCCO[C@@H]1O[C@@H](C(=O)O)[C@@H](O[C@@H]2O[C@@H](C(=O)O)[C@@H](O[C@@H]3O[C@@H](C(=O)O)[C@@H](O[C@@H]4O[C@@H](C(=O)O)[C@@H](OS(=O)(=O)O)[C@H](O)[C@H]4OS(=O)(=O)O)[C@H](O)[C@H]3OS(=O)(=O)O)[C@H](O)[C@H]2OS(=O)(=O)O)[C@H](O)[C@H]1OS(=O)(=O)O [Example 12]", "80%"),
]

---

- assayed_target: CCL28 (Homo sapiens)
- Sequence (Q9NRJ3 20-127, species assumed): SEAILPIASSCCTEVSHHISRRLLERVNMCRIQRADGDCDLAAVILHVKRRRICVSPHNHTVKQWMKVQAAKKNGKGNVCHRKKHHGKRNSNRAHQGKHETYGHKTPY
- experiment_summary: Chemokine glycan microarray binding assay
- test_conditions: maximum RFU set as 100% binding, average across 2 glycan concentrations and 3 chemokine dilutions (n=6)
Recorded mean rank binding to CCL28 for the following compounds

# compound, mean rank binding to CCL28
rows = [
    ("NCCOCCO[C@@H]1O[C@@H](C(=O)O)[C@@H](O[C@@H]2O[C@@H](C(=O)O)[C@@H](OS(=O)(=O)O)[C@H](O)[C@H]2O)[C@H](O)[C@H]1O", "80%"),
    ("NCCCO[C@@H]1O[C@@H](C(=O)O)[C@@H](O[C@H]2O[C@H](CO)[C@@H](O[C@@H]3O[C@@H](C(=O)O)[C@@H](O[C@H]4O[C@H](CO)[C@@H](O)[C@H](OS(=O)(=O)O)[C@H]4N)[C@H](O)[C@H]3OS(=O)(=O)O)[C@H](OS(=O)(=O)O)[C@H]2N)[C@H](O)[C@H]1OS(=O)(=O)O", "66%"),
    ("NCCOCCO[C@@H]1OC(C(=O)O)[C@@H](O)C(O)C1O (some centres unmarked)", "46%"),
    ("NCCCO[C@@H]1O[C@@H](C(=O)O)[C@@H](O[C@H]2O[C@H](CO)[C@@H](O[C@@H]3O[C@@H](C(=O)O)[C@@H](O[C@H]4O[C@H](CO)[C@@H](O)[C@H](OS(=O)(=O)O)[C@H]4N)[C@H](O)[C@H]3O)[C@H](OS(=O)(=O)O)[C@H]2N)[C@H](O)[C@H]1O", "62%"),
    ("NCCOCCO[C@@H]1O[C@@H](C(=O)O)[C@@H](OS(=O)(=O)O)[C@H](O)[C@H]1O", "58%"),
]

---

- assayed_target: CXCL10 (Homo sapiens, UniProt P02778)
- Sequence (P02778 22-98, species assumed): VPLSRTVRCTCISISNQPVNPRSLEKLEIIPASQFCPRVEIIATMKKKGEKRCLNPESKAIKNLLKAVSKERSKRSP
- experiment_summary: Chemokine glycan microarray binding assay
- test_conditions: maximum RFU set as 100% binding, average across 2 glycan concentrations and 3 chemokine dilutions (n=6)

# compound, unit_spec, mean rank binding to CXCL10
records = [
    ("NCCCO[C@@H]1O[C@@H](C(=O)O)[C@@H](O[C@H]2O[C@H](CO)[C@@H](O[C@@H]3O[C@@H](C(=O)O)[C@@H](O[C@H]4O[C@H](CO)[C@@H](O)[C@H](OS(=O)(=O)O)[C@H]4N)[C@H](O)[C@H]3OS(=O)(=O)O)[C@H](OS(=O)(=O)O)[C@H]2N)[C@H](O)[C@H]1OS(=O)(=O)O", "%", 27),
    ("CC(=O)NC1C(O)[C@H](O)C(COS(=O)(=O)O)O[C@@H]1O[C@@H]1C(C(=O)O)O[C@@H](O[C@@H]2C(COS(=O)(=O)O)O[C@H](O[C@@H]3C(C(=O)O)O[C@@H](OCCCN)C(O)C3O)C(NC(C)=O)C2O)C(O)C1O (stereo partly drawn)", "%", 41),
    ("NCCOCCO[C@@H]1OC(C(=O)O)[C@@H](O)C(O)C1O (stereo partly drawn)", "%", 47),
    ("NCCOCCO[C@@H]1O[C@@H](C(=O)O)[C@@H](OS(=O)(=O)O)[C@H](O)[C@H]1O", "%", 45),
    ("NCCOCCO[C@@H]1O[C@@H](C(=O)O)[C@@H](O[C@@H]2O[C@@H](C(=O)O)[C@@H](OS(=O)(=O)O)[C@H](O)[C@H]2O)[C@H](O)[C@H]1O", "%", 57),
    ("NCCOCCO[C@@H]1O[C@@H](C(=O)O)[C@@H](O[C@@H]2O[C@@H](C(=O)O)[C@@H](O[C@@H]3O[C@@H](C(=O)O)[C@@H](OS(=O)(=O)O)[C@H](O)[C@H]3O)[C@H](O)[C@H]2O)[C@H](O)[C@H]1O", "%", 23),
]
